Readout Label: melting point

molecule=C=CCNc1nnc(S)s1 readout_label="melting point" reported="133 to 135 °C"
molecule=Cc1nc(-c2cc(C(=O)O)co2)cs1 readout_label="melting point" reported="186 to 188 °C"
molecule=O=C(CCl)N1CCN(S(=O)(=O)c2ccc(F)c(Cl)c2)CC1 readout_label="melting point" reported="121 to 123 °C"
molecule=O=S(=O)(Cl)C12CC3CC(CC(C3)C1)C2 readout_label="melting point" reported="121 to 123 °C"
molecule=Nc1cc(C2CCNCC2)n[nH]1 readout_label="melting point" reported="151 to 153 °C"
molecule=CCOC(=O)c1sc2nc(CS(=O)(=O)CC(=O)O)[nH]c(=O)c2c1C readout_label="melting point" reported="277 to 279 °C"
molecule=Nc1nc(-c2ccc3c(c2)CC(=O)N3)cs1 readout_label="melting point" reported="249 to 251 °C"
molecule=CC(=O)c1cccc(-n2cnnn2)c1 readout_label="melting point" reported="155 to 157 °C"
molecule=Cc1noc2ncc(C(=O)O)cc12 readout_label="melting point" reported="229 to 231 °C"
molecule=CC(C)n1nccc1C(=O)O readout_label="melting point" reported="149 to 151 °C"
molecule="CC1CCC(C(=O)O)C2C(=O)N(c3ccccc3)C(=O)C12 (stereo not given)" readout_label="melting point" reported="182 to 184 °C"
molecule=CS(=O)(=O)c1c(F)cc(N)cc1F readout_label="melting point" reported="169 to 171 °C"
molecule="CCCOc1cc2c(cc1C=O)OC(C)C2 (stereo not given)" readout_label="melting point" reported="45 to 47 °C"
molecule=COc1cc(-c2nnc(S)o2)cc(OC)c1OC readout_label="melting point" reported="97 to 99 °C"
molecule="CC(C(=O)O)S(=O)(=O)Cc1ccc(Br)cc1 (stereo not given)" readout_label="melting point" reported="135 to 137 °C"
molecule=O=S(=O)(Cl)c1ccc2c(c1)Cc1ccccc1-2 readout_label="melting point" reported="157 to 159 °C"
molecule=OCc1cnn(-c2ccccc2)n1 readout_label="melting point" reported="70 to 72 °C"
molecule=O=C(O)C1CCN(C(=O)c2ccccn2)CC1 readout_label="melting point" reported="146 to 148 °C"
molecule=O=C(O)c1ccc(Cl)c(S(=O)(=O)Nc2ccccc2Cl)c1 readout_label="melting point" reported="213 to 215 °C"
molecule="CCCN1CCCC(C(=O)O)C1 (stereo not given)" readout_label="melting point" reported="137 to 139 °C"
molecule="CCC(C)(C)C1CCc2c(sc(NC(=O)CCl)c2C#N)C1 (stereo not given)" readout_label="melting point" reported="100 to 102 °C"
molecule=COC(=O)c1c(O)cc(=O)n2c1CCC2 readout_label="melting point" reported="167 to 169 °C"
molecule=Cc1nc2c(c(C)c1CN)c(=O)[nH]n2C readout_label="melting point" reported="311 to 313 °C"
molecule=CS(=O)(=O)c1cc(S(N)(=O)=O)ccc1F readout_label="melting point" reported="202 to 204 °C"
molecule="CC(C(O)c1ccccc1)N(C)S(=O)(=O)c1ccc([N+](=O)[O-])cc1 (stereo not given)" readout_label="melting point" reported="132 to 134 °C"
molecule=Cc1cc(-c2nccn2Cc2ccccc2)c(=O)[nH]n1 readout_label="melting point" reported="215 to 217 °C"
molecule=O=C(O)CCNS(=O)(=O)c1ccc2c(c1)OCCCO2 readout_label="melting point" reported="200 to 205 °C"
molecule=Cc1nn(Cc2ccc(Cl)cc2)c(C)c1CO readout_label="melting point" reported="132 to 134 °C"
molecule=O=C(O)c1nc(NCc2ccccc2)ncc1Cl readout_label="melting point" reported="165 to 167 °C"
molecule=N#Cc1cc(Br)cc(S(=O)(=O)Cl)c1 readout_label="melting point" reported="74 to 76 °C"
molecule=Fc1ccc(Nc2nnc(S)s2)cc1 readout_label="melting point" reported="185 to 187 °C"
molecule=Cc1coc(C=CC(=O)O)n1 readout_label="melting point" reported="103 to 105 °C"
molecule="COC(C#N)c1ccc([N+](=O)[O-])cc1 (stereo not given)" readout_label="melting point" reported="42 to 44 °C"
molecule="NC(=O)C1CNCCN1 (stereo not given)" readout_label="melting point" reported="142 to 144 °C"
molecule=O=C(O)c1sccc1S(=O)(=O)C(F)F readout_label="melting point" reported="121 to 123 °C"
molecule=CC(=O)Nc1ccc(C)cc1O readout_label="melting point" reported="170 to 172 °C"
molecule=CC(C)(C)Sc1ccc(N)cc1 readout_label="melting point" reported="67 to 69 °C"
molecule=NCCc1ccc(OCC(N)=O)cc1 readout_label="melting point" reported="96 to 98 °C"
molecule="COc1ccc(NC(=O)C(C)Cl)cc1 (stereo not given)" readout_label="melting point" reported="133 to 135 °C"
molecule=Cc1ccc(C)n1-c1ccc(C(=O)O)cc1 readout_label="melting point" reported="213 to 215 °C"
molecule=Cn1ccnc1-c1cc(Cl)ccn1 readout_label="melting point" reported="77 to 79 °C"
molecule=N=C(N)NS(=O)(=O)c1ccccc1 readout_label="melting point" reported="211 to 213 °C"
molecule=O=C(O)c1ccc(C(F)F)cc1 readout_label="melting point" reported="205 to 207 °C"
molecule=CC(C)(C)OC(=O)N1CCC(COS(C)(=O)=O)CC1 readout_label="melting point" reported="84 to 86 °C"
molecule=Nc1ccc(Cl)nc1N readout_label="melting point" reported="129 to 131 °C"
molecule=O=C(O)c1cc(F)cc2[nH]c(S)nc12 readout_label="melting point" reported="374 to 376 °C"
molecule=Cn1c(=O)[nH]c(=O)c2cc(S(=O)(=O)Cl)cnc21 readout_label="melting point" reported="214 to 216 °C"
molecule=N#CCn1cc(Br)cn1 readout_label="melting point" reported="60 to 62 °C"
molecule=O=C(O)c1ccccc1Cc1nc2ccccc2c(=O)[nH]1 readout_label="melting point" reported="283 to 285 °C"
molecule=O=C1CC2(Cc3ccccc3C2)C(=O)N1 readout_label="melting point" reported="173 to 175 °C"
molecule="COC(=O)CC1CCCCC1=NO (stereo not given)" readout_label="melting point" reported="74 to 76 °C"
molecule=O=C(O)c1ccc2c(c1)ncn2Cc1ccccc1 readout_label="melting point" reported="102 to 104 °C"
molecule=Cc1cc(C=O)c(C)n1CCN1CCOCC1 readout_label="melting point" reported="79 to 81 °C"
molecule=CC1CCN(Cc2csc(N)n2)CC1 readout_label="melting point" reported="145 to 147 °C"
molecule=c1ccc2[nH]c(C3CCNCC3)nc2c1 readout_label="melting point" reported="253 to 255 °C"
